From: patent US9440960B2

TGT: recombinant human DPPI (Cathepsin C) (Homo sapiens, UniProt P53634)
Construct: purchased Prozymex
Sequence (P53634 231-394 limits assumed): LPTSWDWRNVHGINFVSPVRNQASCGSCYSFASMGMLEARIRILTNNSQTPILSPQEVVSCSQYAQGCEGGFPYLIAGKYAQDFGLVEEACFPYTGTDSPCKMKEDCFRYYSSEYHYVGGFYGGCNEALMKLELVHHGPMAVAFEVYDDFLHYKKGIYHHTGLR
Sequence (P53634 395-463 limits assumed): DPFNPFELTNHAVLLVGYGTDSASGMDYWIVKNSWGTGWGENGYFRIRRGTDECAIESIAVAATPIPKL
Sequence (P53634 25-143 limits assumed): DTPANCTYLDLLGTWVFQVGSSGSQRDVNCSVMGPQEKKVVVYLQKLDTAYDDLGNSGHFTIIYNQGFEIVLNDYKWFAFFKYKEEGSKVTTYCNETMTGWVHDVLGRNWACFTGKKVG
PROTOCOL: Inhibition of Human DPPI (Cathepsin C)
Type: biochemical
MEASUREMENT CONTEXT: substrate Gly-Arg-AMC 50 μM, MES buffer pH 6.0, 30 min at room temperature, fluorescence readout
Binary label based on IC50 with cut-off 20 nM: below gives yes (1), not below gives no (0).

In the record for N#C[C@H](Cc1ccc(C2CCN(C3COC3)C2)cc1F)NC(=O)[C@H]1N[C@@H]2CC[C@H]1C2 (some centres unmarked) , is IC50 less than 20 nM?
no (0)

In the record for N#C[C@H](Cc1ccc(N2CCC3C2CCN3C2COC2)cc1F)NC(=O)[C@H]1N[C@@H]2CC[C@H]1C2 (some centres unmarked) [Example 9] , is IC50 less than 20 nM?
yes (1)

###

Give measured pIC50 for each item. Keep answers brief.
TGT: recombinant human DPPI (Cathepsin C) (Homo sapiens, UniProt P53634)
PROTOCOL: Inhibition of Human DPPI (Cathepsin C)
MEASUREMENT CONTEXT: substrate Gly-Arg-AMC 50 μM, MES buffer pH 6.0, 30 min at room temperature, fluorescence readout
One number for each entry, as −log10 of the molar value.

N#C[C@H](Cc1ccc(C2CC3CN(C4COC4)CC3C2)cc1F)NC(=O)[C@H]1N[C@@H]2CC[C@H]1C2 (stereo partly shown) [Example 14]	7.53
N#C[C@H](Cc1ccc(C2=CCN(C3COC3)CC2)cc1F)NC(=O)[C@H]1N[C@@H]2CC[C@H]1C2	8.25
N#C[C@H](Cc1ccc(N2CCN(C3COC3)CC2)cc1F)NC(=O)[C@H]1N[C@@H]2CC[C@H]1C2	7.93
N#C[C@H](Cc1ccc(N2CCC3C2CCN3C2COC2)cc1F)NC(=O)[C@H]1N[C@@H]2CC[C@H]1C2 (stereo partly shown) [Example 8]	7.45
N#C[C@H](Cc1ccc(C2CCN(C3COC3)CC2)cc1F)NC(=O)[C@H]1N[C@@H]2CC[C@H]1C2	7.22

// each listed molecule needs a value for pIC50
1. N#C[C@H](Cc1ccc(N2CC3(C2)CN(C2COC2)C3)cc1F)NC(=O)[C@H]1N[C@@H]2CC[C@H]1C2
2. N#C[C@H](Cc1ccc(C2CC3CN(C4COC4)CC3C2)cc1F)NC(=O)[C@H]1N[C@@H]2CC[C@H]1C2 (stereo partly shown) [Example 13]

7.67
7.10

###

Give measured pIC50 for each item. Keep answers brief.
TGT: recombinant human DPPI (Cathepsin C) (Homo sapiens)
PROTOCOL: Inhibition of Human DPPI (Cathepsin C)
MEASUREMENT CONTEXT: substrate Gly-Arg-AMC 50 μM, MES buffer pH 6.0, 30 min at room temperature, fluorescence readout
Description: Inhibition of Human DPPI (Cathepsin C) Materials: Microtiterplates (Optiplate-384 F) were purchased from PerkinElmer (Prod.No. 10 6007270). The substrate Gly-Arg-AMC was from Biotrend (Prod.-No. 808756 Custom peptide). Bovine serum albumin (BSA; Prod.No. A3059) and Dithiothreitol (DTT; Prod.No D0632) were from Sigma. TagZyme buffer was from Riedel-de-Haen (Prod.-No. 04269), NaCl was from Merck (Prod.-No. 1.06404.1000) and morpholinoethane sulfonic acid (MES), was from Serva (Prod.-No. 29834). […]
One number for each entry, as −log10 of the molar value.

N#C[C@H](Cc1ccc(N2C3CCC2CN(C2COC2)C3)cc1F)NC(=O)[C@H]1N[C@@H]2CC[C@H]1C2	7.84
N#C[C@H](Cc1ccc(N2CC3CN(C4COC4)CC3C2)cc1F)NC(=O)[C@H]1N[C@@H]2CC[C@H]1C2 (stereo partly drawn)	7.78
N#C[C@H](Cc1ccc(C2CCCN(C3COC3)C2)cc1F)NC(=O)[C@H]1N[C@@H]2CC[C@H]1C2 (stereo partly drawn)	7.28
N#C[C@H](Cc1ccc(N2CC3CCN(C4COC4)C3C2)cc1F)NC(=O)[C@H]1N[C@@H]2CC[C@H]1C2 (stereo partly drawn)	7.87

// each listed compound needs a value for pIC50
1. N#C[C@H](Cc1ccc(N2CCN(C3COC3)CC2)cc1F)NC(=O)C12CCC(CC1)CN2
2. N#C[C@H](Cc1ccc(N2CCC3CN(C4COC4)CC32)cc1F)NC(=O)[C@H]1N[C@@H]2CC[C@H]1C2 (stereo partly drawn)

1: 7.18; 2: 8.00
